# Assay system: T1, human G-protein-coupled receptor family C group 5 member D (GPRC5D) (human, UniProt Q9NZD1 1-345)
# T1 construct: whole, on cells; also called human GPRC5D protein
# T1 sequence (Q9NZD1 whole entry): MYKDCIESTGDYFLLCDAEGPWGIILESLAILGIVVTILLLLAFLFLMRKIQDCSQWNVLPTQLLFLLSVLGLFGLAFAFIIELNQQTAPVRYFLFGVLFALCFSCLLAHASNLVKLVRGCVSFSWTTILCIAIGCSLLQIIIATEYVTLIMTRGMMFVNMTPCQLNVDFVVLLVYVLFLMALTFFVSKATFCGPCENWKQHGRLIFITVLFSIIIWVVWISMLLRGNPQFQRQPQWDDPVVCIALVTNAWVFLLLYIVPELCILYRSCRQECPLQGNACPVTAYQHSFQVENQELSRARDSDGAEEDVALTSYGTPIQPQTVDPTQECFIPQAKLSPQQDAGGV
# Experiment summary: FACS, CHO-K1/GPRC5D
Endpoint: Bottom
Just the number.

- 58-H4L3 (antibody, V domains shown, humanized 58F9G10, VH v4 x VL v3) VH: QVQLVQSGAEVKKPGASVKISCKASGYSFTGYYIHWVKQAPGQGLEWIGYISSYNAATSFNQKFKGRATFTVDTSTSTAYMEFSSLRSEDSAVYYCARTELRGPWFAYWGQGTLVTVSS VL: DTQLTQSPSSLSASVGDRVTMTCSASSSVSYMNWYQQKPGKAPKRLIYDTSKLASGVPSRFSGSGSGTDYTLTISSMQPEDFATYYCQQWSNNPLTFGQGTKLEIK: 6250

// query Bottom value for entry 58-H1L1 (antibody, V domains shown, humanized 58F9G10, VH v1 x VL v1) VH: QVQLVQSGAEVKKPGASVKVSCKASGYSFTGYYIHWVRQAPGQGLEWMGYISSYNAATSFNQKFKGRVTMTRDTSTSTVYMELSSLRSEDTAVYYCARTELRGPWFAYWGQGTLVTVSS VL: DIQMTQSPSSLSASVGDRVTITCSASSSVSYMNWYQQKPGKAPKLLIYDTSKLASGVPSRFSGSGSGTDFTLTISSLQPEDFATYYCQQWSNNPLTFGQGTKLEIK
15000

Same question for 58-H2L2 (antibody, V domains shown, humanized 58F9G10, VH v2 x VL v2) VH: QVQLVQSGAEVKKPGASVKVSCKASGYSFTGYYIHWVRQAPGQGLEWIGYISSYNAATSFNQKFKGRVTFTVDTSTSTVYMELSSLRSEDTAVYYCARTELRGPWFAYWGQGTLVTVSS VL: DTQMTQSPSSLSASVGDRVTITCSASSSVSYMNWYQQKPGKAPKRLIYDTSKLASGVPSRFSGSGSGTDYTLTISSLQPEDFATYYCQQWSNNPLTFGQGTKLEIK please.
4840
